The values you see were collected from the supplement of paper PMC10724198.

tested on: Saccharomyces cerevisiae; assay: protein stability index of tFT-peptide fusion (C-terminal peptide) (PSI (0-1 scale)); higher = more stable (slower turnover); conditions: genetic background: das1 deletion; temperature: 37 C
Would you mind labelling by protein stability index? At or over 0.6 is TRUE, under is FALSE.

{"columns": ["residues", "assigned-label"],
 "data": [
  ["FWYIRIRLAVVA", "FALSE"],
  ["RPNTFRTRAKAL", "TRUE"],
  ["VPWSKIAARLII", "TRUE"],
  ["SRGLVPMANRYC", "TRUE"],
  ["FAKRVARVAREH", "TRUE"],
  ["SVGCCLLCFFVL", "FALSE"],
  ["YSVFCPLFFIIY", "FALSE"],
  ["TCVTLRYRLTFE", "TRUE"],
  ["RRVPVHIHFSLF", "TRUE"],
  ["VDFCLLFLLLLV", "FALSE"],
  ["ICFPLQIFRILV", "FALSE"],
  ["HLYCYNILLVSG", "FALSE"],
  ["APPFPPPPARSL", "TRUE"],
  ["LLAVIVWIVPPA", "FALSE"],
  ["LLCRVSRTRILC", "FALSE"],
  ["LAKPTVRKIICV", "FALSE"],
  ["YTPPISRLLIFT", "FALSE"]
]}

====

Recorded protein stability index values for a group of sequences are listed next.
tested on: Saccharomyces cerevisiae; assay: protein stability index of tFT-peptide fusion (C-terminal peptide) (PSI (0-1 scale)); higher = more stable (slower turnover); conditions: genetic background: wild type; temperature: 30 C

{"columns": ["residues", "protein stability index"],
 "data": [
  ["LLPSPLPPLLRL", 0.649],
  ["RIDRDDHLVPNS", 0.626],
  ["TGWRFVRSKGGS", 0.741],
  ["RVRSKNIKIRWK", 0.798],
  ["FSLYSFSSSFSF", 0.677],
  ["PLLPSPPLLLPS", 0.819],
  ["PPPAPPSPLLSR", 0.685],
  ["RGRGKVGLWEGS", 0.669],
  ["DKNVREGDRETR", 0.685],
  ["LSILSIHAHRAN", 0.665],
  ["GATLGRQEPGHS", 0.671],
  ["PSCLPPPAHLEL", 0.705],
  ["PSPRASLPRLPP", 0.597],
  ["LCPSLLFSSSDP", 0.699],
  ["WGAGGGGWWGGV", 0.731],
  ["FFPELSNLHPPS", 0.708],
  ["FERRGSSFWGGC", 0.7],
  ["PPSSPPFLPSRP", 0.677],
  ["GMRGGGGWCRGW", 0.671]
]}

====

test system: Saccharomyces cerevisiae; experiment: protein stability index of tFT-peptide fusion (C-terminal peptide) (PSI (0-1 scale)); higher = more stable (slower turnover); details: genetic background: wild type; temperature: 30 C
value-type: protein stability index

{"columns": ["residues", "test-result"],
 "data": [
  ["YYPLRIADQNGN", 0.795],
  ["WALRADGGERTG", 0.684],
  ["RTDALKVVADMI", 0.682],
  ["VIESRNEEGGRV", 0.727],
  ["LVPDGFMLALKE", 0.686],
  ["KCLALSAGWIAT", 0.627],
  ["SMAPDIQLYTAS", 0.689],
  ["SLPPPPCLPPLT", 0.675],
  ["RDRMSEGLGDRS", 0.684],
  ["DPQQRSNPKPII", 0.661],
  ["CPPVRLSLPPSL", 0.68],
  ["PPHHLPPGPPHP", 0.72],
  ["APQTELTGVLFG", 0.685],
  ["GGVCCGGLRGVS", 0.74],
  ["HTPTLPLHPPRY", 0.642],
  ["EPAAHCGERRHL", 0.608],
  ["LSYSSLGLRFSY", 0.579],
  ["AGPPRGVCARWC", 0.635],
  ["FSRFPFVKLSLV", 0.297]
]}

====

system: Saccharomyces cerevisiae; experiment: protein stability index of tFT-peptide fusion (C-terminal peptide) (PSI (0-1 scale)); higher = more stable (slower turnover); conditions: genetic background: wild type; temperature: 30 C
value-type: protein stability index

{"columns": ["residues", "test-result"],
 "data": [
  ["WRAFVFYHHFLD", 0.363],
  ["VLPCSLVPLRLH", 0.374],
  ["DNTYRIDIKNKQ", 0.466],
  ["FVGVVCILWLVG", 0.176],
  ["LLAVIVWIVPPA", 0.222],
  ["YVWPKRRGLRVA", 0.261],
  ["LVMYRSALIRGH", 0.396],
  ["FPTLVRKFINAI", 0.0817],
  ["FLFFRFLVGCCF", 0.311],
  ["EQMRRYILVSYV", 0.243]
]}

====

system: Saccharomyces cerevisiae; assay: protein stability index of tFT-peptide fusion (C-terminal peptide) (PSI (0-1 scale)); higher = more stable (slower turnover); settings: genetic background: wild type; temperature: 30 C
Threshold check on protein stability index: at or above 0.2 gives 1.0, strictly below gives 0.0.

{"columns": ["residues", "assay-system", "assigned-label"],
 "data": [
  ["TFRPWPLHILAL", "Saccharomyces cerevisiae", 0.0],
  ["LSYRFVFRFLLF", "Saccharomyces cerevisiae", 1.0],
  ["GVKSQLYSFVWF", "Saccharomyces cerevisiae", 1.0],
  ["RIKVTRRIIIYA", "Saccharomyces cerevisiae", 0.0],
  ["RLGIRCLYLRFI", "Saccharomyces cerevisiae", 1.0],
  ["TFLFPLPFLFFI", "Saccharomyces cerevisiae", 0.0],
  ["AQLVYVITAVRT", "Saccharomyces cerevisiae", 1.0],
  ["VRVWLLACASKG", "Saccharomyces cerevisiae", 1.0],
  ["AWLWCVCWSIMR", "Saccharomyces cerevisiae", 1.0],
  ["CPPPCPLYMLLC", "Saccharomyces cerevisiae", 0.0],
  ["GGWGVFGVWVWM", "Saccharomyces cerevisiae", 1.0],
  ["VWACWCGWVLLM", "Saccharomyces cerevisiae", 0.0],
  ["ACALRSLPPRPY", "Saccharomyces cerevisiae", 1.0],
  ["LVSYHKMAISSF", "Saccharomyces cerevisiae", 1.0],
  ["PSPPPPLPPHPS", "Saccharomyces cerevisiae", 1.0],
  ["QLGGKVGNCHVV", "Saccharomyces cerevisiae", 1.0],
  ["RARFMLGVLLST", "Saccharomyces cerevisiae", 1.0],
  ["VFLVGFRVTLDS", "Saccharomyces cerevisiae", 1.0]
]}

====

# key: entry, value: protein stability index
test system: Saccharomyces cerevisiae; experiment: protein stability index of tFT-peptide fusion (C-terminal peptide) (PSI (0-1 scale)); higher = more stable (slower turnover); settings: genetic background: das1 deletion; temperature: 30 C

{"columns": ["residues", "assay-system", "protein stability index"],
 "data": [
  ["TLTDLRDELRGL [NUP120 C-terminal 12 aa]", "Saccharomyces cerevisiae", 0.678],
  ["QLEEELMDMLDD [FCP1 C-terminal 12 aa]", "Saccharomyces cerevisiae", 0.674],
  ["IFVFFVIWVLVN [SED5 C-terminal 12 aa]", "Saccharomyces cerevisiae", 0.209],
  ["VARLKDESENVW [COX16 C-terminal 12 aa]", "Saccharomyces cerevisiae", 0.689],
  ["DHKVGAQVSYKY [MAD2 C-terminal 12 aa]", "Saccharomyces cerevisiae", 0.71],
  ["YLADELSKALLA [RFA1 C-terminal 12 aa]", "Saccharomyces cerevisiae", 0.673]
]}

====

protein stability index reference
tested on: Saccharomyces cerevisiae; assay: protein stability index of tFT-peptide fusion (C-terminal peptide) (PSI (0-1 scale)); higher = more stable (slower turnover); settings: genetic background: das1 deletion; temperature: 30 C
value-type: protein stability index

{"columns": ["residues", "test-result"],
 "data": [
  ["NTGSKKSVPTSS [AQY3 C-terminal 12 aa]", 0.704],
  ["LSVIYMGWSPFY [TEL1 C-terminal 12 aa]", 0.716],
  ["GIPNLLLPPHLV [TRM112 C-terminal 12 aa]", 0.707],
  ["VTGPHDRWYVVG [ATG14 C-terminal 12 aa]", 0.76],
  ["VNGGSKKRKAND [RMI1 C-terminal 12 aa]", 0.664],
  ["RILKDEIPIGED [BET3 C-terminal 12 aa]", 0.702],
  ["NDKGEQVVGGNE [TMA16 C-terminal 12 aa]", 0.663],
  ["KDSELNIKSSKL [STR3 C-terminal 12 aa]", 0.782],
  ["ADGNPLQALPQL [TOM40 C-terminal 12 aa]", 0.708],
  ["WVCQEILKLCKD [NRK1 C-terminal 12 aa]", 0.675],
  ["HAERERENMIYD [YGL108C C-terminal 12 aa]", 0.712],
  ["SRRRPFIGPETV [YMR057C C-terminal 12 aa]", 0.709]
]}
